These entries and their values trace back to patent US8969335B2.

Assign log10(IC50) to each entry below.
On a log10 scale: recorded IC50, unit nM.

[Q] # value lookup — system TANK binding kinase (TBK1) (Homo sapiens (Human), UniProt Q9UHD2), readout log10(IC50), item N#Cc1cc(-c2ccnc(Nc3ncc(C4CCNCC4)cn3)c2)ccc1OC1CCOCC1 [Compound A66]
[A] 2.00

[Q] # value lookup — system TANK binding kinase (TBK1) (Homo sapiens (Human), UniProt Q9UHD2), readout log10(IC50), item N#Cc1cc(-c2ccnc(Nc3cnn(CCC4CCNCC4)c3)n2)ccc1OC1CCOCC1 [Compound A45]
[A] 0.30

[Q] # value lookup — system TANK binding kinase (TBK1) (Homo sapiens (Human), UniProt Q9UHD2), readout log10(IC50), item N#Cc1cc(-c2ccnc(Nc3cnn(CCO)c3)n2)ccc1OC1CCOCC1 [Compound A75]
[A] 0.48

[Q] # value lookup — system TANK binding kinase (TBK1) (Homo sapiens (Human), UniProt Q9UHD2), readout log10(IC50), item COc1nc(Nc2nccc(-c3ccc(OC4CCOCC4)c(C#N)c3)n2)ccc1C1=CCNCC1 [Compound A76]
[A] 1.43

[Q] # value lookup — system TANK binding kinase (TBK1) (Homo sapiens (Human), UniProt Q9UHD2), readout log10(IC50), item N#Cc1cc(-c2ccnc(Nc3cnn(CCn4cccn4)c3)n2)ccc1OC1CCOCC1 [Compound A43]
[A] 1.85

[Q] # value lookup — system TANK binding kinase (TBK1) (Homo sapiens (Human), UniProt Q9UHD2), readout log10(IC50), item N#Cc1cc(-c2ccnc(Nc3ccc(C(F)(F)F)cn3)c2)ccc1OC1CCOCC1 [Compound A13]
[A] 2.49

[Q] # value lookup — system TANK binding kinase (TBK1) (Homo sapiens (Human), UniProt Q9UHD2), readout log10(IC50), item COCCn1cc(Nc2nccc(-c3ccc(OC4CCOCC4)c(C#N)c3)n2)cn1 [Compound A35]
[A] 0.78

[Q] # value lookup — system TANK binding kinase (TBK1) (Homo sapiens (Human), UniProt Q9UHD2), readout log10(IC50), item N#Cc1cc(-c2ccnc(Nc3cnn(CC(F)F)c3)c2)ccc1OC1CCOCC1 [Compound A20]
[A] 1.74

[Q] # value lookup — system TANK binding kinase (TBK1) (Homo sapiens (Human), UniProt Q9UHD2), readout log10(IC50), item CC(=O)N1CCC(COc2ccc(-c3ccnc(Nc4ccc(CO)cn4)c3)cc2C#N)CC1 [Compound A115]
[A] 3.18
